B1: POMT2 (parent)
chain: YHEAPMTRKHYQVTGYGINGTGDS

# Variants of: B1
# method notes: protein stability index of a GFP-peptide fusion (GPS, HEK-293T) (PSI 1-6); higher = more stable;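 further: lentivirally expressed fusions sorted by FACS into six bins by GFP to DsRed ratio, PSI derived from sequencing read proportions per bin multiplied by bin number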
# assay conditions: c terminus: a fixed tail appended
Hi there, I'd appreciate the recorded protein stability index for every entry that follows.
Note: the reply should be a number with no unit written.

INPUT: Please look at this variant and report its protein stability index: D23P
OUTPUT: 2.02

INPUT: Please look at this variant and report its protein stability index: M6V
OUTPUT: 2.67

INPUT: Please look at this variant and report its protein stability index: P5D
OUTPUT: 2.72

INPUT: Please look at this variant and report its protein stability index: T21C
OUTPUT: 2.4

INPUT: Please look at this variant and report its protein stability index: G17I
OUTPUT: 1.84

INPUT: Please look at this variant and report its protein stability index: R8N
OUTPUT: 2.82

INPUT: Please look at this variant and report its protein stability index: D23M
OUTPUT: 1.66

INPUT: Please look at this variant and report its protein stability index: G22C
OUTPUT: 1.91

INPUT: Please look at this variant and report its protein stability index: E3I
OUTPUT: 1.73

INPUT: Please look at this variant and report its protein stability index: G15N
OUTPUT: 2.04

INPUT: Please look at this variant and report its protein stability index: R8V
OUTPUT: 2.55

INPUT: Please look at this variant and report its protein stability index: V13N
OUTPUT: 2.65

INPUT: Please look at this variant and report its protein stability index: P5V
OUTPUT: 2.14

INPUT: Please look at this variant and report its protein stability index: N19Y
OUTPUT: 2.57

INPUT: Please look at this variant and report its protein stability index: S24F
OUTPUT: 1.76

INPUT: Please look at this variant and report its protein stability index: I18M
OUTPUT: 2.3

INPUT: Please look at this variant and report its protein stability index: Y11R
OUTPUT: 2.56

INPUT: Please look at this variant and report its protein stability index: T21M
OUTPUT: 2.01

INPUT: Please look at this variant and report its protein stability index: T7P
OUTPUT: 2.42

INPUT: Please look at this variant and report its protein stability index: M6Q
OUTPUT: 2.68

INPUT: Please look at this variant and report its protein stability index: S24E
OUTPUT: 2.29

INPUT: Please look at this variant and report its protein stability index: E3P
OUTPUT: 2.87

INPUT: Please look at this variant and report its protein stability index: G20P
OUTPUT: 2.24

INPUT: Please look at this variant and report its protein stability index: D23I
OUTPUT: 2.18

INPUT: Please look at this variant and report its protein stability index: T21W
OUTPUT: 2.15

INPUT: Please look at this variant and report its protein stability index: H2I
OUTPUT: 2.21

INPUT: Please look at this variant and report its protein stability index: H2A
OUTPUT: 2.56

INPUT: Please look at this variant and report its protein stability index: Q12N
OUTPUT: 2.85

INPUT: Please look at this variant and report its protein stability index: S24M
OUTPUT: 1.79

INPUT: Please look at this variant and report its protein stability index: H2M
OUTPUT: 3.09

INPUT: Please look at this variant and report its protein stability index: D23S
OUTPUT: 2.14

INPUT: Please look at this variant and report its protein stability index: Y1G
OUTPUT: 3.53

INPUT: Please look at this variant and report its protein stability index: T7V
OUTPUT: 2.07

INPUT: Please look at this variant and report its protein stability index: A4P
OUTPUT: 1.96

INPUT: Please look at this variant and report its protein stability index: Y1H
OUTPUT: 3.58

INPUT: Please look at this variant and report its protein stability index: T7N
OUTPUT: 1.82

INPUT: Please look at this variant and report its protein stability index: Y1I
OUTPUT: 4.03

INPUT: Please look at this variant and report its protein stability index: M6T
OUTPUT: 2.43

INPUT: Please look at this variant and report its protein stability index: A4L
OUTPUT: 1.91

INPUT: Please look at this variant and report its protein stability index: P5Y
OUTPUT: 1.73

INPUT: Please look at this variant and report its protein stability index: Y16T
OUTPUT: 2.53

INPUT: Please look at this variant and report its protein stability index: H10R
OUTPUT: 1.94

INPUT: Please look at this variant and report its protein stability index: Y11M
OUTPUT: 2.98

INPUT: Please look at this variant and report its protein stability index: V13Q
OUTPUT: 3.11

INPUT: Please look at this variant and report its protein stability index: G22E
OUTPUT: 2.35

INPUT: Please look at this variant and report its protein stability index: T7F
OUTPUT: 1.92

INPUT: Please look at this variant and report its protein stability index: K9M
OUTPUT: 2.3

INPUT: Please look at this variant and report its protein stability index: Y11P
OUTPUT: 3.14

INPUT: Please look at this variant and report its protein stability index: R8L
OUTPUT: 3.16

INPUT: Please look at this variant and report its protein stability index: T14E
OUTPUT: 2.96

INPUT: Please look at this variant and report its protein stability index: G17Q
OUTPUT: 1.75

INPUT: Please look at this variant and report its protein stability index: H10V
OUTPUT: 1.91

INPUT: Please look at this variant and report its protein stability index: V13I
OUTPUT: 2.21

INPUT: Please look at this variant and report its protein stability index: H2D
OUTPUT: 3.98

INPUT: Please look at this variant and report its protein stability index: N19R
OUTPUT: 1.73

INPUT: Please look at this variant and report its protein stability index: N19H
OUTPUT: 2.25

INPUT: Please look at this variant and report its protein stability index: Y16M
OUTPUT: 2.3
